system: EM-2 (Chronic Myelogenous Leukemia); experiment: combination Emax (second highest fraction inhibited in the dose matrix, 72 h); higher = more inhibition; extreme values may be limits of the assay
For each record, write down the corresponding combination Emax.
Give bare numbers.

Worked set:
1. CCc1c2c(nc3ccc(O)cc13)-c1cc3c(c(=O)n1C2)COC(=O)[C@]3(O)CC [SN-38] + CN(C)CCCOc1ccc(-c2ccc3ncc4c(c3c2)n(C2CCOCC2)c(=O)n4C)cn1 [AZD0156] (first compound max 0.3 µM, 7x7, partner max 1 µM) = 0.985
2. CC1(C)CCC(CN2CCN(c3ccc(C(=O)NS(=O)(=O)c4ccc(NCC5CCOCC5)c([N+](=O)[O-])c4)c(Oc4cnc5[nH]ccc5c4)c3)CC2)=C(c2ccc(Cl)cc2)C1 [Venetoclax] + COc1cc(Nc2ncc3c(n2)-c2ccc(Cl)cc2C(c2c(F)cccc2OC)=NC3)ccc1C(=O)O [Alisertib] (first compound max 1 µM, 7x7, partner max 10 µM) = 0.903
3. NC1(C(=O)N[C@@H](CCO)c2ccc(Cl)cc2)CCN(c2ncnc3[nH]ccc23)CC1 [Capivasertib] + C[C@@H]1COCCN1C2=NC(=NC(=C2)C3(CC3)[S@](=N)(=O)C)C4=C5C=CNC5=NC=C4 [AZD6738] (first compound max 10 µM, 7x7, partner max 10 µM) = 0.973
4. Cc1c2c(nn1C)CSCc1cc(n(C)n1)CSc1cc(c3ccccc3c1)OCCCc1c(C(=O)O)n(C)c3c-2c(Cl)ccc13 [AZD5991] + Cc1cc2ncnn2cc1Nc1ncc2c(n1)n(C1CCOCC1)c(=O)n2C [AZD7648] (first compound max 1 µM, 7x7, partner max 10 µM) = 0.446
5. NC1(C(=O)N[C@@H](CCO)c2ccc(Cl)cc2)CCN(c2ncnc3[nH]ccc23)CC1 [Capivasertib] + COc1nnc2ccc(N3CCC(c4ccc(OCCN5CCN(C)C(=O)[C@H]5C)cc4)CC3)nn12 [AZD5153] (first compound max 10 µM, 7x7, partner max 1 µM) = 0.958

Provide each entry's combination Emax from the list below.
1. CN(CCO)CC[C@H](CSc1ccccc1)Nc1ccc(S(=O)(=O)NC(=O)c2ccc(N3CCC([C@@H](O)c4ccccc4-c4ccc(Cl)cc4)CC3)cc2)cc1S(=O)(=O)C(F)(F)F [AZD4320] + CCN(CCO)CCCOc1ccc2c(Nc3cc(CC(=O)Nc4cccc(F)c4)[nH]n3)ncnc2c1 [AZD2811] (first compound max 1 µM, 7x7, partner max 1 µM)
2. Cc1cc2ncnn2cc1Nc1ncc2c(n1)n(C1CCOCC1)c(=O)n2C [AZD7648] + CCN(CCO)CCCOc1ccc2c(Nc3cc(CC(=O)Nc4cccc(F)c4)[nH]n3)ncnc2c1 [AZD2811] (first compound max 10 µM, 7x7, partner max 1 µM)

Result ::
[0.985, 0.878]

###

system: COR-L23 (Non-Small Cell Lung Carcinoma); experiment: combination Emax (second highest fraction inhibited in the dose matrix, 72 h); higher = more inhibition; extreme values may be limits of the assay
Kindly state combination Emax for each of the entries shown.

1) CCN(CCO)CCCOc1ccc2c(Nc3cc(CC(=O)Nc4cccc(F)c4)[nH]n3)ncnc2c1 [AZD2811] + O=C(c1cc(Cc2n[nH]c(=O)c3ccccc23)ccc1F)N1CCN(C(=O)C2CC2)CC1 [Olaparib] (first compound max 1 µM, 7x7, partner max 10 µM) = 0.0799
2) CN(CCO)CC[C@H](CSc1ccccc1)Nc1ccc(S(=O)(=O)NC(=O)c2ccc(N3CCC([C@@H](O)c4ccccc4-c4ccc(Cl)cc4)CC3)cc2)cc1S(=O)(=O)C(F)(F)F [AZD4320] + CCN(CCO)CCCOc1ccc2c(Nc3cc(CC(=O)Nc4cccc(F)c4)[nH]n3)ncnc2c1 [AZD2811] (first compound max 1 µM, 7x7, partner max 1 µM) = 0.15

Query :: Name the recorded combination Emax for Cc1cc2ncnn2cc1Nc1ncc2c(n1)n(C1CCOCC1)c(=O)n2C [AZD7648] + O=C(c1cc(Cc2n[nH]c(=O)c3ccccc23)ccc1F)N1CCN(C(=O)C2CC2)CC1 [Olaparib] (first compound max 10 µM, 7x7, partner max 10 µM) .
Result :: 0.212
